src = patent US20230233569A1

- system: KRAS WT (Homo sapiens, UniProt P01116+P62937)
- Sequence (P01116 1-169 isoform P01116-2 limits assumed, one chain of several): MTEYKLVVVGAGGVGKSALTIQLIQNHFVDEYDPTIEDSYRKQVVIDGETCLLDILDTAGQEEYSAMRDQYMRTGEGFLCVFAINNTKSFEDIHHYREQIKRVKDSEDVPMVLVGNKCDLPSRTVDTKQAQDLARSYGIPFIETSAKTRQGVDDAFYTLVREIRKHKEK
- protocol: Ras-Raf disruption / FRET / MOA assay (BRAF RBD)
- Type: biochemical
- applied-conditions: Ras-Raf disruption, with Cyclophilin A; read-out: KRAS WT FRET data IC50
pIC50: −log10 of the molar value.
measure: pIC50

Answered examples (3):
| compound | measure | result |
| --- | --- | --- |
| CCn1c(-c2cccnc2[C@H](C)OC)c2c3cc(ccc31)-c1csc(n1)C[C@H](NC(=O)[C@H](C(C)C)N(C)C(=O)N1CCCN(C(=O)[C@@H]3CN3)CC1)C(=O)N1CCC[C@H](N1)C(=O)OCC(C)(C)C2 (atropisomer, axis not shown) | pIC50 | 7.00 to 8.00 |
| CCn1c(-c2cccnc2[C@H](C)OC)c2c3cc(ccc31)-c1cc(O)cc(c1)C[C@H](NC(=O)[C@H](C(C)C)N(C)C(=O)N1CCN(C(=O)[C@H]3CN3)CC1)C(=O)N1CCC[C@H](N1)C(=O)OCC(C)(C)C2 | pIC50 | 7.00 to 8.00 |
| CCOC(=O)[C@H]1O[C@@H]1C(=O)N1CC[C@H](C(=O)N(C)[C@H](C(=O)N[C@H]2Cc3cc(O)cc(c3)-c3ccc4c(c3)c(c(-c3cccnc3[C@H](C)OC)n4CC)CC(C)(C)COC(=O)[C@@H]3CCCN(N3)C2=O)C(C)C)C1 | pIC50 | 7.00 to 8.00 |

// Input: CCn1c(-c2cccnc2[C@H](C)OC)c2c3cc(ccc31)-c1csc(n1)C[C@H](NC(=O)[C@H](C(C)C)N(C)C(=O)N1CC[C@@H](N(C)C(=O)[C@@H]3CN3)C1)C(=O)N1CCC[C@H](N1)C(=O)OCC(C)(C)C2 (atropisomer, axis not shown) . Output its pIC50 only.
6.00 to 7.00

----------
- system: NRAS G12C (Homo sapiens, UniProt P01111+P62937, G12C)
- Sequence (P01111 whole entry G12C, one chain of several): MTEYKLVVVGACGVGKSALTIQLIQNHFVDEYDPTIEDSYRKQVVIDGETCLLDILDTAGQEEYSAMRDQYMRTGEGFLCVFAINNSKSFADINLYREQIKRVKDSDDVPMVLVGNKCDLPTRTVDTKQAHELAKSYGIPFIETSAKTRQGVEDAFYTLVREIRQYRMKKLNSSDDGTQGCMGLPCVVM
- protocol: Ras-Raf disruption / FRET / MOA assay (BRAF RBD)
- Type: biochemical
- applied-conditions: NRAS G12C; read-out: NRAS G12C FRET data IC50
Overview of reported IC50 across a group of compounds:

| compound | IC50 |
| --- | --- |
| CCn1c(-c2cccnc2[C@H](C)OC)c2c3cc(ccc31)-c1cc(O)cc(c1)C[C@H](NC(=O)[C@H](C(C)C)N(C)C(=O)N1CC[C@@H](N(C)C(=O)[C@H]3CN3)C1)C(=O)N1CCC[C@H](N1)C(=O)OCC(C)(C)C2 (atropisomer, axis not shown) [Example 252] | < 10 nM |

// Input: CCn1c(-c2cccnc2[C@H](C)OC)c2c3cc(ccc31)-c1cc(O)cc(c1)C[C@H](NC(=O)[C@H](C(C)C)N(C)C(=O)C1CCN(S(=O)(=O)[C@H]3CN3C)CC1)C(=O)N1CCC[C@H](N1)C(=O)OCC(C)(C)C2 (single isomer, unassigned) [Example 108] . Output its IC50 only.
100 to 1000 nM

----------
- system: KRAS G12S (Homo sapiens, UniProt P01116+P62937, G12S)
- Sequence (P01116 1-169 isoform P01116-2 G12S limits assumed): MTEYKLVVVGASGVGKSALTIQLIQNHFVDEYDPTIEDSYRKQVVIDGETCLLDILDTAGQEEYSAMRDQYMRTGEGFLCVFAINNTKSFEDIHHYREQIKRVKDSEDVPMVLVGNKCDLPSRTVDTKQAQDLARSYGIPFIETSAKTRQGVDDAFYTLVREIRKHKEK
- Sequence (P62937 whole entry): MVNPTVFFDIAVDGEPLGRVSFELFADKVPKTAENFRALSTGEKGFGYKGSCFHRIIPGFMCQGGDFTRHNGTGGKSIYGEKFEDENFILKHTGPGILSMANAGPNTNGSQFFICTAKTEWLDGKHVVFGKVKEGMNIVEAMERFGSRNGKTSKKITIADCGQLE
- protocol: Disruption of BRAF RBD interaction with Ras (FRET / MOA assay, with Cyclophilin A)
- Assay type: biochemical
- applied-conditions: read-out: KRAS G12S FRET data, IC50
Overview of reported IC50 across a group of compounds:

Answered examples (2):
| compound | system | measure | result |
| --- | --- | --- | --- |
| CCn1c(-c2cccnc2COC)c2c3cc(ccc31)-c1cc(O)cc(c1)C[C@H](NC(=O)[C@H](C(C)C)N(C)C(=O)[C@H]1CCN(C(=O)C#CC(C)(C)N(C)C)C1)C(=O)N1CCC[C@H](N1)C(=O)OCC(C)(C)C2 | KRAS G12S (Homo sapiens, UniProt P01116+P62937, G12S) | IC50 | 1000 to 10000 nM |
| CCn1c(-c2cccnc2[C@H](C)OC)c2c3cc(ccc31)-c1csc(n1)C[C@H](NC(=O)[C@H](C(C)C)N(C)C(=O)[C@H]1CCN(C(=O)/C=C/CN(C)C)C1)C(=O)N1CCC[C@H](N1)C(=O)OCC(C)(C)C2 | KRAS G12S (Homo sapiens, UniProt P01116+P62937, G12S) | IC50 | 1000 to 10000 nM |

Determine reported IC50 for CCn1c(-c2cc(N3CCN(C)CC3)cnc2[C@H](C)OC)c2c3cc(ccc31)-c1cccc(c1)C[C@H](NC(=O)[C@H](C(C)C)N(C)C(=O)[C@@H]1OCC[C@@H]1c1ccccc1)C(=O)N1CCC[C@H](N1)C(=O)OCC(C)(C)C2 (atropisomer, axis not shown) ; test system: KRAS G12S (Homo sapiens, UniProt P01116+P62937, G12S).
100 to 1000 nM

Determine reported IC50 for CCn1c(-c2cnccc2COC)c2c3cc(ccc31)-c1cc(O)cc(c1)C[C@H](NC(=O)C1CCCC1C(F)F)C(=O)N1CCC[C@H](N1)C(=O)OCC(C)(C)C2 (stereo partly shown) ; test system: KRAS G12S (Homo sapiens, UniProt P01116+P62937, G12S).
1000 to 10000 nM
